- tested-system: hDAT W84L mutant (Homo sapiens, UniProt Q01959, W84L)
- Sequence (Q01959 whole entry W84L): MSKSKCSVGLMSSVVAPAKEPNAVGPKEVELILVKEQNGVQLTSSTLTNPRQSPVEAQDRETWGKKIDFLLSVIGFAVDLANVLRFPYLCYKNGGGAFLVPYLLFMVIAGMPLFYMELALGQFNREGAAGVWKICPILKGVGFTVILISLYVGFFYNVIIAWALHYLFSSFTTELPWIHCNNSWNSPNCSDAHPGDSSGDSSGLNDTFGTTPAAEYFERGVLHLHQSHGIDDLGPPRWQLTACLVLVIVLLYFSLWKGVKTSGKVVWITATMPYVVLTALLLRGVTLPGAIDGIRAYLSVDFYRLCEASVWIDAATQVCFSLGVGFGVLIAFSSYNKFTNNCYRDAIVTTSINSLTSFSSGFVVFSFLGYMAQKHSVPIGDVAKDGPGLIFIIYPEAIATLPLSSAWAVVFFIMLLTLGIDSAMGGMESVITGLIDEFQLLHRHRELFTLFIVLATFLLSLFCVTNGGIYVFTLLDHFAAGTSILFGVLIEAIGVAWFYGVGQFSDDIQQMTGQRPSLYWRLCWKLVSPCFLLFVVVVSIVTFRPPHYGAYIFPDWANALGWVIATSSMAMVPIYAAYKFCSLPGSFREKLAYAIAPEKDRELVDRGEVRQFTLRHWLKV
- test-details: displacement of intact-cell [3H]CFT binding, W84L mutant hDAT
quantity-name: Ki (nM)
Answers are plain numbers, in nM.

Oc1ccc(CCNCCCCCCNCCc2ccccc2)cc1O [dopexamine, reference compound]
147

Then this compound:
Name the reported Ki value associated with the compound CC(CCc1ccc(O)cc1)NCCc1ccc(O)c(O)c1 (stereo not drawn) [(dl)-dobutamine, dobutamine, reference compound]
237

* * *

What pKi was measured for each of the following?
- tested-system: wild-type hDAT (Homo sapiens, UniProt Q01959)
- Sequence (Q01959 whole entry): as the sequence (Q01959 whole entry W84L) above, with L84W counted along it
- test-details: displacement of intact-cell [3H]CFT binding, wild-type hDAT
- condition-description: read-out: hDAT Binding Ki, WT; inhibition of [3H]CFT binding, intact HEK-hDAT cells, 21°C, 15 min
One number for each entry, as −log10 of the molar value.

Below are worked cases with known answers.
CC(Cc1ccccc1)NCCCNCCc1ccc(O)c(O)c1 (stereo not drawn)
6.49
Oc1ccc(CCNCCCCCNCCc2ccc(O)c(O)c2)cc1O
7.08

// input: 2 molecules below; output: pKi for each
1. Oc1ccc(CCNCCCCCCNCCc2ccc(O)c(O)c2)cc1O
2. Oc1ccc(CCNCCCNCCc2ccc(O)c(O)c2)cc1O

1: 7.16; 2: 6.06

// input: 5 molecules below; output: pKi for each
1. CCCCCCNCCc1ccc(O)c(O)c1
2. CCCNC(C)Cc1ccccc1 (stereo not drawn) [(dl)-propylamphetamine, N-propylamphetamine, reference compound]
3. Oc1ccc(CCNCCCCCCCCNCCc2ccc(O)c(O)c2)cc1O
4. CC(Cc1ccccc1)NCCc1ccc(O)c(O)c1 (stereo not drawn)
5. NCCc1ccccc1 [β-phenethylamine, reference compound]

[5.76, 6.01, 7.28, 6.47, 5.49]

* * *

- tested-system: WT hDAT (Homo sapiens)
- Sequence (Q01959 whole entry): as the sequence (Q01959 whole entry W84L) above, with L84W counted along it
- test-details: inhibition of [3H]DA uptake in intact HEK-hDAT cells
- Assay type: cell-based
- condition-description: inhibition of [3H]DA uptake, intact HEK-hDAT cells, 5 min
Grouping key: Uptake Kapp, WT. Bins: lo: < 200 nM; med: ≥ 200 nM and < 600 nM; hi: ≥ 600 nM

See these solved cases before continuing.
CC(NC(C)(C)C)C(=O)c1cccc(Cl)c1 (stereo not drawn) [bupropion, reference compound]
med
Oc1ccc(CCNCCCCCCCCNCCc2ccc(O)c(O)c2)cc1O [Compound D-362]
lo
CCCNC(C)Cc1ccccc1 (stereo not drawn) [(dl)-propylamphetamine, N-propylamphetamine, reference compound]
hi

Sort CN[C@@H](C)Cc1ccccc1 [(d)-methamphetamine, reference compound] into one of the categories.
lo

Sort CC(CCc1ccc(O)c(O)c1)NCCc1ccc(O)c(O)c1 [Compound D-278, hydroxydobutamine] into one of the categories.
lo

Sort Oc1ccc(CCNCCCCCCNCCc2ccc(O)c(O)c2)cc1O [Compound D-361] into one of the categories.
lo

Sort Oc1ccc(CCNCCCCCCNCCc2ccccc2)cc1O [dopexamine, reference compound] into one of the categories.
lo

Sort CC(Cc1ccccc1)NCCCNCCc1ccc(O)c(O)c1 [Compound D-309] into one of the categories.
hi

Sort C[C@H](N)Cc1ccccc1 [(d)-amphetamine, reference compound] into one of the categories.
lo

Sort Oc1ccc(CCNCCCCCNCCc2ccc(O)c(O)c2)cc1O [Compound D-347] into one of the categories.
lo

Sort CCCCCCNCCc1ccc(O)c(O)c1 [Compound D-363, N-hexyldopamine] into one of the categories.
hi

Sort Oc1ccc(CCNCCCNCCc2ccc(O)c(O)c2)cc1O [Compound D-307] into one of the categories.
hi

Sort CN1[C@@H]2CC[C@H]1C[C@@H](OC(c1ccccc1)c1ccccc1)C2 [benztropine, reference compound] into one of the categories.
med

Sort CC(CCc1ccc(O)cc1)NCCc1ccc(O)c(O)c1 (stereo not drawn) [(dl)-dobutamine, dobutamine, reference compound] into one of the categories.
med

Sort CC(Cc1ccccc1)NCCCCCCNCCc1ccc(O)c(O)c1 [Compound D-371] into one of the categories.
med

Sort NCCc1ccccc1 [β-phenethylamine, reference compound] into one of the categories.
hi
